We begin with a simple list: items and their reported Plant response rating (0 to 100), Wild buckwheat.
- Tested on: wild buckwheat
- experiment: Test C preemergence/postemergence greenhouse plant response rating 0 to 100
- Type: in vivo, Polygonum convolvulus
- conditionNotes: Rate 16 g/ha; POSTEMERGENCE
assayMetric: Plant response rating (0 to 100), Wild buckwheat

compound | result
C#CC(C)Oc1cc(-c2nn3c(c2Br)CCCC3)c(F)cc1Cl (centres unmarked) [Compound 66] | 100
CCOC(=O)COc1cc(-c2nn3c(c2Cl)CCCC3)c(F)cc1Cl [Compound 42] | 60
C#CC(C)N1C(=O)COc2cc(F)c(-c3nn4c(c3Cl)CCCC4)cc21 (centres unmarked) [Compound 50] | 80
COC(=O)C(C)Oc1cc(-c2nn3c(c2Cl)CCCC3)c(F)cc1Cl (centres unmarked) [Compound 28] | 60
C=C(Cl)COc1cc(-c2nn3c(c2Cl)CCCC3)c(F)cc1Cl [Compound 40] | 50
CCC(C)Oc1cc(-c2nn3c(c2Cl)CCCC3)c(F)cc1Cl (centres unmarked) [Compound 48] | 85
CCN1C(=O)COc2cc(F)c(-c3nn4c(c3Cl)CCCC4)cc21 [Compound 54] | 100
CCCN1C(=O)COc2cc(F)c(-c3nn4c(c3Cl)CCCC4)cc21 [Compound 32] | 90

====

- Test system: rape
- experiment: Test B preemergence/postemergence greenhouse plant response rating 0 to 10
- Assay type: in vivo, Brassica napus
- conditionNotes: Rate 200 g/ha, POSTEMERGENCE; 0 to 10 scale
We begin with a simple list: items and their reported Plant response rating, Rape.

structureSmiles | testSystem | Plant response rating, Rape
C=CCOc1cc(-c2nn3c(c2Cl)CCCC3)c(Cl)cc1Cl | rape | 10
CCOCOc1cc(-c2nn3c(c2Cl)CCCC3)c(F)cc1Cl | rape | 10
O=C1COc2cc(F)c(-c3nn4c(c3Cl)CCCC4)cc2N1 | rape | 10
CCOC(=O)COc1cc(-c2nn3c(c2Cl)CCCC3)c(Cl)cc1Cl | rape | 10
C=CCN1C(=O)COc2cc(F)c(-c3nn4c(c3Br)CCCC4)cc21 | rape | 10
Fc1cc(Cl)c(OCCCl)cc1-c1nn2c(c1Cl)CCCC2 | rape | 6
CCOC(=O)COc1cc(-c2nn3c(c2Cl)CCCC3)c(F)cc1Cl | rape | 10
Fc1cc(Cl)ccc1-c1nn2c(c1Br)CCCC2 | rape | 10
CON=C(C)c1cc(-c2nn3c(c2Cl)CCCC3)c(F)cc1Cl | rape | 7
COCOc1cc(-c2nn3c(c2Br)CCCC3)c(F)cc1Cl | rape | 9
CCC(=O)Oc1cc(-c2nn3c(c2Cl)CCCC3)c(F)cc1Cl | rape | 6

====

- Tested on: Japonica rice
- experiment: Test E paddy water application plant response rating 0 to 100
- Format: in vivo, oryza sativa
- conditionNotes: Rate 8 g/ha; Flood; 0 to 100 scale; approx. 21 days
We begin with a simple list: items and their reported Japonica 2 plant response rating.

compound | Japonica 2 plant response rating
Fc1cc(Cl)c(OCCCl)cc1-c1nn2c(c1Cl)CCCC2 | 0
C=CCN1C(=O)COc2cc(F)c(-c3nn4c(c3Br)CCCC4)cc21 | 15
C#CC(C)N1C(=O)COc2cc(F)c(-c3nn4c(c3Cl)CCCC4)cc21 (stereo not shown) | 15
C=C(Cl)COc1cc(-c2nn3c(c2Cl)CCCC3)c(F)cc1Cl | 10

====

- System: broadleaf signalgrass
- experiment: Test G preemergence/postemergence greenhouse plant response rating 0 to 100
- Format: in vivo, Brachiaria plantaginea
- conditionNotes: PREEMERGENCE, Rate 125 g/ha, 0 to 100 scale
We begin with a simple list: items and their reported Plant response rating, Brdlf Sgnlgrass.
assayMetric: Plant response rating, Brdlf Sgnlgrass

compound | assayMetric | result
CC(C)Oc1cc(-c2nn3c(c2Cl)CCCC3)c(F)cc1Cl [Compound 21] | Plant response rating, Brdlf Sgnlgrass | 0
C#CCN1C(=O)COc2cc(F)c(-c3nn4c(c3Cl)CCCC4)cc21 [Compound 34] | Plant response rating, Brdlf Sgnlgrass | 0
COC(=O)C(C)Oc1cc(-c2nn3c(c2Cl)CCCC3)c(F)cc1Cl (stereo not drawn) [Compound 28] | Plant response rating, Brdlf Sgnlgrass | 0
Fc1cc(Cl)c(OC2CCCC2)cc1-c1nn2c(c1Cl)CCCC2 [Compound 24] | Plant response rating, Brdlf Sgnlgrass | 100
CC(C)COc1cc(-c2nn3c(c2Cl)CCCC3)c(F)cc1Cl [Compound 30] | Plant response rating, Brdlf Sgnlgrass | 0
CCS(=O)(=O)Oc1cc(-c2nn3c(c2Cl)CCCC3)c(F)cc1Cl [Compound 25] | Plant response rating, Brdlf Sgnlgrass | 0

====

We begin with a simple list: items and their reported Plant response rating, Crabgrass.
- Test system: crabgrass
- experiment: Test B preemergence/postemergence greenhouse plant response rating 0 to 10
- Assay type: in vivo, Digitaria spp.
- conditionNotes: PREEMERGENCE, Rate 10 g/ha; 0 to 10 scale

compound | Plant response rating, Crabgrass
C#CCOC(=O)COc1cc(-c2nn3c(c2Cl)CCCC3)c(F)cc1Cl [Compound 61] | 0
C#CCN1C(=O)COc2cc(F)c(-c3nn4c(c3Cl)CCCC4)cc21 [Compound 34] | 3
CCCN1C(=O)COc2cc(F)c(-c3nn4c(c3Cl)CCCC4)cc21 [Compound 32] | 2
COCN1C(=O)COc2cc(F)c(-c3nn4c(c3Br)CCCC4)cc21 [Compound 67] | 0
CCCN1C(=O)COc2cc(F)c(-c3nn4c(c3Br)CCCC4)cc21 [Compound 63] | 0
C#CC(C)N1C(=O)COc2cc(F)c(-c3nn4c(c3Cl)CCCC4)cc21 (centres unmarked) [Compound 50] | 0
CCN1C(=O)COc2cc(F)c(-c3nn4c(c3Cl)CCCC4)cc21 [Compound 54] | 0
COCN1C(=O)COc2cc(F)c(-c3nn4c(c3Cl)CCCC4)cc21 [Compound 55] | 0

====

We begin with a simple list: items and their reported Plant response rating, Blackgrass.
- Test system: blackgrass
- experiment: Test B preemergence/postemergence greenhouse plant response rating 0 to 10
- Type: in vivo, Alopecurus myosuroides
- conditionNotes: Rate 200 g/ha, PREEMERGENCE; 0 to 10 scale

molecule | Plant response rating, Blackgrass
Fc1cc(Cl)ccc1-c1nn2c(c1Br)CCCC2 [Compound 52] | 6
CCC(=O)Oc1cc(-c2nn3c(c2Cl)CCCC3)c(F)cc1Cl [Compound 47] | 3
CCS(=O)(=O)Oc1cc(-c2nn3c(c2Cl)CCCC3)c(F)cc1Cl [Compound 25] | 3
C=C(Cl)COc1cc(-c2nn3c(c2Cl)CCCC3)c(F)cc1Cl [Compound 40] | 2

====

We begin with a simple list: items and their reported Plant response rating, Rape.
- Test system: rape
- experiment: Test C preemergence/postemergence greenhouse plant response rating 0 to 100
- Type: in vivo, Brassica napus
- conditionNotes: POSTEMERGENCE, 62 g/ha, 0 to 100 scale
assayMetric: Plant response rating, Rape

molecule | result
CCC(C)Oc1cc(-c2nn3c(c2Cl)CCCC3)c(F)cc1Cl (stereo not drawn) | 50
C=CCN1C(=O)COc2cc(F)c(-c3nn4c(c3Cl)CCCC4)cc21 | 100
CC(C)N1C(=O)COc2cc(F)c(-c3nn4c(c3Cl)CCCC4)cc21 | 100
CC(C)COc1cc(-c2nn3c(c2Cl)CCCC3)c(F)cc1Cl | 100
COCN1C(=O)COc2cc(F)c(-c3nn4c(c3Br)CCCC4)cc21 | 100
C#CCOc1cc(-c2nn3c(c2Br)CCCC3)c(F)cc1Cl | 100

====

- Test system: cheatgrass
- experiment: Test B preemergence/postemergence greenhouse plant response rating 0 to 10
- Format: in vivo, Bromus secalinus
- conditionNotes: POSTEMERGENCE, Rate 10 g/ha; 0 to 10 scale
We begin with a simple list: items and their reported Plant response rating, Cheatgrass.
assayMetric: Plant response rating, Cheatgrass

compound | testSystem | result
COCN1C(=O)COc2cc(F)c(-c3nn4c(c3Br)CCCC4)cc21 [Compound 67] | cheatgrass | 5
CCCCN1C(=O)COc2cc(F)c(-c3nn4c(c3Cl)CCCC4)cc21 [Compound 57] | cheatgrass | 4
C#CCN1C(=O)COc2cc(F)c(-c3nn4c(c3Cl)CCCC4)cc21 [Compound 34] | cheatgrass | 4
CCN1C(=O)COc2cc(F)c(-c3nn4c(c3Cl)CCCC4)cc21 [Compound 54] | cheatgrass | 5
CCCN1C(=O)COc2cc(F)c(-c3nn4c(c3Cl)CCCC4)cc21 [Compound 32] | cheatgrass | 4
CC(C#N)Oc1cc(-c2nn3c(c2Cl)CCCC3)c(F)cc1Cl (stereo not drawn) [Compound 60] | cheatgrass | 3
